# Tested system: UniProt:P09960
# Sequence (P09960 whole entry): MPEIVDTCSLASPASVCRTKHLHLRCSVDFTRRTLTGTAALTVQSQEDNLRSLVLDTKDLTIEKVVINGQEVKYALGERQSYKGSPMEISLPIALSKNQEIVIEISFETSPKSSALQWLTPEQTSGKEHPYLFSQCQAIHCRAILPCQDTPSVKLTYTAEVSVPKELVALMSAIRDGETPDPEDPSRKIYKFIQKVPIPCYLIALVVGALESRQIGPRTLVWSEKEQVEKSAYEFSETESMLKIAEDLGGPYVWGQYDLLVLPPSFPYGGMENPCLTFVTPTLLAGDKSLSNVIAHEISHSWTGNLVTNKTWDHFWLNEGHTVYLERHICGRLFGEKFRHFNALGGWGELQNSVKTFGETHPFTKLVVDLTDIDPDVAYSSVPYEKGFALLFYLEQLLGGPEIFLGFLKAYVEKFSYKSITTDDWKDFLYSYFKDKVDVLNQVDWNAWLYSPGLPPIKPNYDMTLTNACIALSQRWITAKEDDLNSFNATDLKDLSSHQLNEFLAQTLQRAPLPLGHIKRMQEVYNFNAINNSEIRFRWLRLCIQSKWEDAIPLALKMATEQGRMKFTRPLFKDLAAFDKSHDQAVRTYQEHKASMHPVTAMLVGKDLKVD
Property name: IC50 (µM)
Enter your answer as a number in µM; do not include the unit.

Examples with answers:
>>> print(df.to_string())
                              smiles_record  property_name  uom  value_measured
0                COc1cc(O)cc(CCc2ccccc2O)c1           IC50   µM             0.5
1  CC(=O)Oc1ccc(/C=C/c2cc(OC(C)=O)cc(OC(C)=O)c2)cc1           IC50   µM            38.6
2           COc1cc(O)cc(/C=C/c2ccc(O)cc2)c1           IC50   µM             3.9
3        Cc1ccc2c(=O)c(-c3ccc(O)cc3)coc2c1O           IC50   µM             1.2

Prompt: State the recorded IC50 for this entry: `O=c1c(-c2ccccc2)coc2cc(O)ccc12`
Response: 48.2

Just for reference, BindingDB's records for patent US20240398793 is where these values come from.
